Biological target: KRAS G12V (Homo sapiens, UniProt P01116, G12V)
Sequence (P01116 1-188 isoform P01116-2 G12V): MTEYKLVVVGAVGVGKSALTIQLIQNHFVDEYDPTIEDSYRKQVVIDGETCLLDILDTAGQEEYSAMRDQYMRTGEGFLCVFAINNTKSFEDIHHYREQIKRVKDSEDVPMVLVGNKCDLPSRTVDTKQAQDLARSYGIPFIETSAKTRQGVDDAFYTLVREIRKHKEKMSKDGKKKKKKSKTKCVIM
Assay: GDP-GTP exchange assay (bodipy-GDP/GppNHp, SOS1), KRAS G12V
Assay type: biochemical
Conditions: Table H, column G12V; for compounds isolated as several atropisomers/diastereoisomers the value for the most potent isomer is quoted; read-out: KRAS G12V exchange assay IC50
pIC50: −log10 of the molar value.
measurement-kind: pIC50

// worked examples, pIC50 included
smiles-text	pIC50
Cc1nc2c(F)c(-c3cccc(Cl)c3Cl)c(CCC#N)cc2c2c1cc([C@H]1C[C@H](OCc3ccsn3)CN1C(=O)C1CC1)n2[C@H]1[C@H]2CN[C@@H]1C2	≥ 7.00
COc1ncccc1CO[C@H]1C[C@H](c2cc3c(C)nc4c(F)c(-c5cccc(Cl)c5Cl)c(CCC#N)cc4c3n2[C@H]2[C@H]3CN[C@@H]2C3)N(C(=O)C2CC2)C1	≥ 7.00
Cc1nc2c(F)c(-c3cccc(Cl)c3Cl)c(CCC#N)cc2c2c1cc([C@H]1C[C@H](OCc3cccc(C(F)(F)F)n3)CN1C(=O)C1CC1)n2[C@H]1[C@H]2CN[C@@H]1C2	≥ 7.00
Cc1nc2c(F)c(-c3cccc(Cl)c3Cl)c(CCC#N)cc2c2c1cc([C@H]1C[C@H](Oc3cnn(C)c3C(F)F)CN1C(=O)C1CC1)n2[C@H]1[C@H]2CN[C@@H]1C2	≥ 7.00

Next compound, please.
Entry Cc1nc2c(F)c(-c3cccc(Cl)c3Cl)c(CCC#N)cc2c2c1cc([C@H]1C[C@H](Oc3ccnc4ccsc34)CN1C(=O)C1CC1)n2[C@H]1[C@H]2CN[C@@H]1C2 : reported pIC50 = ?
≥ 7.00

====

Target: KRAS G12V (Homo sapiens, UniProt P01116, G12V)
Assay: GDP-GTP exchange assay (bodipy-GDP/GppNHp, SOS1), KRAS G12V
Type: biochemical
Settings: KRAS G12V mutant; value for the most potent isomer quoted for certain compounds; read-out: G12V (KRAS G12V exchange assay IC50)
The reader will find reported IC50 values listed item by item below.

Previously resolved entries follow.
molecule	IC50
Cc1nc2c(F)c(-c3cccc(Cl)c3Cl)c(CCC#N)cc2c2c1cc([C@H]1C[C@H](Oc3ccn(C)c3C(F)(F)F)CN1C(=O)C1CC1)n2[C@H]1[C@H]2CN[C@@H]1C2 [Example 407]	≤ 100 nM
Cc1nc2c(F)c(-c3cccc(Cl)c3Cl)c(CCC#N)cc2c2c1cc([C@H]1C[C@H](Oc3cnn(C(F)F)c3)[C@@H](C)N1C(=O)C1CC1)n2[C@H]1[C@H]2CN[C@@H]1C2 [Example 214]	≤ 100 nM
Cc1nc2c(F)c(-c3cccc(Cl)c3Cl)c(CCC#N)cc2c2c1cc([C@H]1C[C@H](Oc3cccc(OC(F)(F)F)c3)CN1C(=O)C1CC1)n2[C@H]1[C@H]2CN[C@@H]1C2 [Example 171]	≤ 100 nM
Cc1nc2c(F)c(-c3cccc(Cl)c3Cl)c(CCC#N)cc2c2c1cc([C@H]1C[C@H](OCc3cnnn3C)CN1C(=O)C1CC1)n2[C@H]1[C@H]2CN[C@@H]1C2 [Example 106]	≤ 100 nM

Consider the record given below.
Can you look up the measured IC50 of Cc1nc2c(F)c(-c3cccc(Cl)c3Cl)c(CCC#N)cc2c2c1cc([C@H]1C[C@H](n3nnc(-c4cccc(OC(F)(F)F)c4)n3)CN1C(=O)C1CC1)n2[C@H]1[C@H]2CN[C@@H]1C2 [Example 436] for me?
100 to 1000 nM

====

Molecular target: KRAS G12D (Homo sapiens, UniProt P01116, G12D)
Sequence (P01116 1-188 isoform P01116-2 G12D): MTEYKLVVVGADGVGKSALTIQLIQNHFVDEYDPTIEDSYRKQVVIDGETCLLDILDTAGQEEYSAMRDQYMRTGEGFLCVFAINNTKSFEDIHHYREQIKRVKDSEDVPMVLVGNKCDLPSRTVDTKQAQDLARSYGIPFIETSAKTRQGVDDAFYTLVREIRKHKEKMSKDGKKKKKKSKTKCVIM
Test: GDP-GTP exchange assay (bodipy-GDP/GppNHp, SOS1), KRAS G12D
Type: biochemical
Conditions: bodipy-loaded KRAS G12D 2.5 nM, 4 h pre-incubation; value for the most potent isomer quoted for certain compounds; read-out: G12D (KRAS G12D exchange assay IC50)
measurement-kind: IC50

Consider the reported IC50 for these molecules:
smiles-text	measurement-kind	reading
COC(=O)c1ncn([C@H]2C[C@H](c3cc4c(C)nc5c(F)c(-c6cccc(Cl)c6Cl)c(CCC#N)cc5c4n3[C@H]3[C@H]4CN[C@@H]3C4)N(C(=O)C3CC3)C2)n1	IC50	≤ 100 nM
Cc1nc2c(F)c(-c3cccc(Cl)c3Cl)c(CCC#N)cc2c2c1cc([C@H]1C[C@H](OC[C@H]3C[C@@H](C#N)C3)CN1C(=O)C1CC1)n2[C@H]1[C@H]2CN[C@@H]1C2	IC50	≤ 100 nM

Now let's try a different one.
Param item = CC[C@@H]1[C@@H](Oc2cc(OC)ncc2F)C[C@H](c2cc3c([C@@H](C)O)nc4c(F)c(-c5cccc(Cl)c5Cl)c(CCC#N)cc4c3n2[C@H]2[C@H]3CN[C@@H]2C3)N1C(=O)C1CC1 ; retrieve measured IC50.
≤ 100 nM

====

Molecular target: KRAS G12V (Homo sapiens, UniProt P01116, G12V)
Assay: GDP-GTP exchange assay (bodipy-GDP/GppNHp, SOS1), KRAS G12V
Type: biochemical
Conditions: KRAS G12V mutant; value for the most potent isomer quoted for certain compounds; read-out: G12V (KRAS G12V exchange assay IC50)
measurement-kind: IC50

Consider the worked cases shown below.
smiles-text	IC50
CCOC(=O)c1cnn([C@H]2C[C@H](c3cc4c(C)nc5c(F)c(-c6cccc(Cl)c6Cl)c(CCC#N)cc5c4n3[C@H]3[C@H]4CN[C@@H]3C4)N(C(=O)C3CC3)C2)n1	≤ 100 nM
Cc1nc2c(F)c(-c3cccc(Cl)c3Cl)c(CCC#N)cc2c2c1cc([C@H]1C[C@H](Oc3cn(C)nc3C(F)F)CN1C(=O)C1CC1)n2[C@H]1[C@H]2CN[C@@H]1C2	≤ 100 nM

# ---- query compound ----
Value lookup for IC50; key = Cc1nc2c(F)c(-c3cccc(Cl)c3Cl)c(CCC#N)cc2c2c1cc([C@H]1C[C@H](OC3CC3)CN1C(=O)C1CC1)n2[C@H]1[C@H]2CN[C@@H]1C2
≤ 100 nM

====

Molecular target: KRAS G12V (Homo sapiens, UniProt P01116, G12V)
Experiment: GDP-GTP exchange assay (bodipy-GDP/GppNHp, SOS1), KRAS G12V
Type: biochemical
Details: KRAS G12V mutant; value for the most potent isomer quoted for certain compounds; read-out: G12V (KRAS G12V exchange assay IC50)
Listing of recorded IC50 by entry.

Field: example entries. Status: answers known.
molecule	tested-on	IC50
Cc1nc2c(F)c(-c3cccc(Cl)c3Cl)c(CCC#N)cc2c2c1cc([C@H]1C[C@H](OCc3cncs3)CN1C(=O)C1CC1)n2[C@H]1[C@H]2CN[C@@H]1C2	KRAS G12V (Homo sapiens, UniProt P01116, G12V)	≤ 100 nM
N#CCCc1cc2c(nc(-c3ccc(N4CCOCC4)nc3)c3cc([C@H]4C[C@H](OCc5c(F)cccc5F)CN4C(=O)C4CC4)n([C@H]4[C@H]5CN[C@@H]4C5)c32)c(F)c1-c1cccc(Cl)c1Cl	KRAS G12V (Homo sapiens, UniProt P01116, G12V)	≤ 100 nM

Would you mind telling me what IC50 value was observed for COc1ncccc1O[C@H]1C[C@H](c2cc3c(C(C)O)nc4c(F)c(-c5cccc(Cl)c5Cl)c(CCC#N)cc4c3n2[C@H]2[C@H]3CN[C@@H]2C3)N(C(=O)C2CC2)C1 (some centres unmarked) ?
≤ 100 nM

Given COc1ccc(F)c(CO[C@H]2C[C@H](c3cc4c(C)nc5c(F)c(-c6cccc(Cl)c6Cl)c(CCC#N)cc5c4n3[C@H]3[C@H]4CN[C@@H]3C4)N(C(=O)C3CC3)C2)c1F , state its recorded IC50.
≤ 100 nM

Which measured IC50 value corresponds to Cc1nc2c(F)c(-c3cccc(Cl)c3Cl)c(CCC#N)cc2c2c1cc([C@H]1C[C@H](n3cccn3)CN1C(=O)C1CC1)n2[C@H]1[C@H]2CN[C@@H]1C2 ?
≤ 100 nM

====

Molecular target: KRAS G12V (Homo sapiens, UniProt P01116, G12V)
Experiment: GDP-GTP exchange assay (bodipy-GDP/GppNHp, SOS1), KRAS G12V
Type: biochemical
Settings: KRAS G12V mutant; value for the most potent isomer quoted for certain compounds; read-out: G12V (KRAS G12V exchange assay IC50)
The entries below are paired with their reported IC50.

Example entries begin here.
molecule	IC50
Cc1nc2c(F)c(-c3cccc(Cl)c3Cl)c(CCC#N)cc2c2c1cc([C@H]1C[C@H](n3ccc(CC#N)n3)CN1C(=O)C1CC1)n2[C@H]1[C@H]2CN[C@@H]1C2 [Example 316]	≤ 100 nM
Cc1nc2c(F)c(-c3cccc(Cl)c3Cl)c(CCC#N)cc2c2c1cc([C@H]1C[C@H](Oc3ccc(C(F)(F)F)nc3)CN1C(=O)C1CC1)n2[C@H]1[C@H]2CN[C@@H]1C2 [Example 308]	≤ 100 nM

Form field: reported IC50 of Cc1nc2c(F)c(-c3cccc(Cl)c3Cl)c(CCC#N)cc2c2c1cc([C@H]1C[C@H](Oc3ccnc(C#N)c3)CN1C(=O)C1CC1)n2[C@H]1[C@H]2CN[C@@H]1C2 [Example 198]
≤ 100 nM
